Cited source for all entries: the supplement of paper PMC10127200

- Tested on: OVCAR4
- Procedure Summary: Euclidean distance of Cell Painting phenotypic profile (signed KS, 77 features) to DMSO centroid (dimensionless distance); 5 or 10 uM (library dependent); higher = stronger phenotypic change vs DMSO (phenoactivity)
- Study Conditions: 48 h
Structures can show the parent of a compound that is named as a salt.
Just so you know, the groups by Euclidean distance go like this: low range (below 1), mid range (1 to below 2), high range (2 or more)

1. O=C(NCCCNc1nc(Nc2cccc(NC(=O)N3CCCC3)c2)ncc1I)c1cccs1    high range
2. CC(=O)Nc1ccccc1 [Acetanilide]    mid range
3. c1cc(-c2cnn3cc(-c4ccc(N5CCNCC5)cc4)cnc23)c2cccnc2c1    high range
4. Cc1ccnc(NS(=O)(=O)c2ccc(N)cc2)n1 [Sulfamerazine]    mid range
5. NC(CO)C(=O)NNCc1ccc(O)c(O)c1O (stereo not drawn) [Benserazide HCl]    mid range
6. CCOC(=O)Nc1cc(-c2ccc(C)c(NS(C)(=O)=O)c2)nn2c(C)nnc12 [Bromosporine]    high range
7. COc1cc(Nc2ncc(F)c(Nc3ccc4c(n3)N(COP(=O)(O)O)C(=O)C(C)(C)O4)n2)cc(OC)c1OC [R788 (Fostamatinib) Disodium]    high range
8. O=c1ccn([C@@H]2O[C@H](CO)[C@@H](O)[C@H]2O)c(=O)[nH]1 [Uridine]    low range
9. N=C(N)NCCC[C@H](N)C(=O)O [L-arginine]    low range
10. Cc1cc(O)cc(C)c1Cl [Chloroxylenol]    low range
11. COc1cc(C)c(/C=C/C(C)=C/C=C/C(C)=C/C(=O)O)c(C)c1C [Acitretin]    mid range
12. O=S(=O)(NCCNC/C=C/c1ccc(Br)cc1)c1cccc2cnccc12    mid range
13. C[C@H](NC(=O)CCc1nc2ccccc2c(=O)[nH]1)c1ccccc1    mid range
14. CCN(CC)CCCC(C)Nc1c2ccc(Cl)cc2nc2ccc(OC)cc12 (stereo not drawn) [Quinacrine Dihydrochloride Dihydrate]    high range
15. CCN1C(=O)NC(c2ccccc2)C1=O (stereo not drawn) [Ethotoin]    mid range
16. CNCCCC1c2ccccc2C=Cc2ccccc21 [Protriptyline hydrochloride]    low range
17. COc1c(-c2ccc3cc(NS(C)(=O)=O)ccc3c2)cc(-n2ccc(=O)[nH]c2=O)cc1C(C)(C)C [Dasabuvir(ABT-333)]    mid range
18. CN[C@@H](C)C(=O)N[C@H]1CN(C(=O)CC(C)C)CC[C@H]2CC[C@@H](C(=O)NC(c3ccccc3)c3ccccc3)N2C1=O    mid range
